- measurement-target: human plasma renin (Homo sapiens, UniProt P00797)
- Sequence (P00797 67-406): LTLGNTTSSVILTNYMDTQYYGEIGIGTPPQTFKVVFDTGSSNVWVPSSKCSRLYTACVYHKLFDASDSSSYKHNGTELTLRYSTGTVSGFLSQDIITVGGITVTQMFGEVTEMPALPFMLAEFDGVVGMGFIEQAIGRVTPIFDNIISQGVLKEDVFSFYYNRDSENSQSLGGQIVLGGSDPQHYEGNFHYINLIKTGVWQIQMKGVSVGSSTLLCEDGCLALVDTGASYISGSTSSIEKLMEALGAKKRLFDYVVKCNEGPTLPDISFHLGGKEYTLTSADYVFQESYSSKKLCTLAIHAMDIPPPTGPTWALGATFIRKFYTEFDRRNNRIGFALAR
- method-notes: Renin inhibiting activities (human plasma, angiotensin I by radio immunoassay)
- test-context: pH7.4, 37° C., one hour, read-out: IC50 (50 % inhibition concentrations), renin inhibiting activity
pIC50: −log10 of the molar value.
measured-metric: pIC50

The examples below pair each entry with its known result.
CCCC[C@H](NC(=O)[C@H](Cc1cccc2ccccc12)CS(=O)(=O)CC(O)COC(=O)CC)C(=O)N[C@@H](CC1CCCCC1)[C@@H](O)[C@@H](O)CN1CCOCC1 (mixture of isomers) ... 8.37
CCCC[C@H](NC(=O)[C@H](Cc1cccc2ccccc12)CS(=O)(=O)CC(COC(C)=O)OC)C(=O)N[C@@H](CC1CCCCC1)[C@@H](O)[C@@H](O)CN1CCOCC1 (single isomer, unassigned) [Example 39] ... 8.89
CCCC[C@H](NC(=O)[C@H](Cc1cccc2ccccc12)CS(=O)(=O)CC(COC(C)=O)OC(C)=O)C(=O)N[C@@H](CC1CCCCC1)[C@@H](O)[C@@H](O)CN1CCOCC1 (mixture of isomers) ... 8.60

A. CCCC[C@H](NC(=O)[C@H](Cc1cccc2ccccc12)CS(=O)(=O)CC(COC(C)=O)OC)C(=O)N[C@@H](CC1CCCCC1)[C@@H](O)[C@@H](O)CN1CCOCC1 (single isomer, unassigned) [Example 40]
B. CCCC[C@H](NC(=O)[C@H](Cc1cccc2ccccc12)CS(=O)(=O)C1C(OC(C)=O)CCC1OC(C)=O)C(=O)N[C@@H](CC1CCCCC1)[C@@H](O)[C@@H](O)CN1CCOCC1 (stereo partly drawn)
// query Select the item with the higher value of pIC50 from the options A and B listed. Selection: enter the item's label.
// result A

----------
- measurement-target: human plasma renin (Homo sapiens, UniProt P00797)
- method-notes: Renin inhibiting activities (human plasma, angiotensin I by radio immunoassay)
- test-context: pH7.4, 37° C., one hour, read-out: IC50 (50 % inhibition concentrations), renin inhibiting activity
measured-metric: IC50 (nM)

P. CCCC[C@H](NC(=O)[C@H](Cc1cccc2ccccc12)CS(=O)(=O)CC(COC(=O)CC)OC(C)=O)C(=O)N[C@@H](CC1CCCCC1)[C@@H](O)[C@@H](O)CN1CCOCC1 (mixture of isomers)
Q. CCCC[C@H](NC(=O)[C@H](Cc1ccccc1)CS(=O)(=O)CC(COC(=O)CC)OC(=O)CC)C(=O)N[C@@H](CC1CCCCC1)[C@@H](O)[C@@H](O)CN1CCOCC1 (mixture of isomers)
R. CCCC[C@H](NC(=O)[C@H](Cc1cccc2ccccc12)CS(=O)(=O)CCOC(=O)OCC)C(=O)N[C@@H](CC1CCCCC1)[C@@H](O)[C@@H](O)CN1CCOCC1
// query Descending sort on IC50 required. # the answer lists labels in the order requested
// result Q, R, P

I. CCCC[C@H](NC(=O)[C@H](Cc1cccc2ccccc12)CS(=O)(=O)CC(COC(=O)CC)OC)C(=O)N[C@@H](CC1CCCCC1)[C@@H](O)[C@@H](O)CN1CCOCC1 (mixture of isomers)
II. CCCC[C@H](NC(=O)[C@H](Cc1cccc2ccccc12)CS(=O)(=O)CC(O)COC(=O)C(C)(C)C)C(=O)N[C@@H](CC1CCCCC1)[C@@H](O)[C@@H](O)CN1CCOCC1 (mixture of isomers)
// query Sorting ascending by IC50, which comes first: I or II ? # reply format: chosen label
// result I
